Each recorded value in this set is attributed to paper PMC9963587.

# procedure.summary: in vitro
# details: human
What log10 of CC50 was measured for each of the following?
Units before log transform: µM; reported quantity: CC50; transform: log10.

> print(dat)
                                   molecule  observation.type  meas.value
1  CC(C)Oc1ccc(-n2cnc3cc(/C=C\c4ccc(OC(F)(F)F)cc4)ccc32)cc1     log10 of CC50        0.98
2  CC(C)Oc1ccc(-n2cnc3cc(/C=C\c4ccc5ccccc5c4)ccc32)cc1     log10 of CC50        1.28

Your task in this section: give log10 of CC50 for each listed record.
1. CC(C)Oc1ccc(-n2cnc3cc(/C=C\c4ccc(C(F)(F)F)cc4)ccc32)cc1
2. CC(C)Oc1ccc(-n2cnc3cc(/C=C\c4ccc(C#N)cc4)ccc32)cc1
3. COc1ccc(-n2cnc3cc(NCc4ccc(O)c(OC)c4)ccc32)cc1 [Compound 13b]

Ans.
1. 1.39
2. 1.37
3. 1.94

Below are some molecules; for each one, tell me its log10 of CC50.
1. COc1ccc(CNc2ccc3c(c2)ncn3-c2ccc(OC)cc2)cc1 [Compound 13g]
2. COc1ccc(-n2cnc3cc(NCc4cc(OC)c(O)c(OC)c4)ccc32)cc1 [Compound 13e]
3. Cc1ccc(/C=C\c2ccc3c(c2)ncn3-c2ccc(OC(C)C)cc2)cc1
4. CC(C)Oc1ccc(-n2cnc3cc(/C=C\c4ccc(C(C)(C)C)cc4)ccc32)cc1

Ans.
[2.00, 1.95, 1.32, 0.48]

----------
Kindly supply the reported melting point values for the records listed here.

Worked cases, answers included:
> print(dat)
                                   molecule  observation.type       meas.value
1  Cc1ccc(/C=C/c2ccc3c(c2)ncn3-c2ccc(OC(C)C)cc2)cc1     melting point    168 to 170 °C
2  COc1ccc(CNc2ccc3c(c2)ncn3-c2ccc(OC)cc2)cc1 [Compound 13g]     melting point  128 to 129.3 °C
3  Cc1ccc(/C=C\c2ccc3c(c2)ncn3-c2ccc(OC(C)C)cc2)cc1     melting point    168 to 169 °C

For the 3 molecules below, give their melting point values.
1. CC(C)Oc1ccc(-n2cnc3cc(/C=C\c4ccc(OC(F)F)cc4)ccc32)cc1
2. COc1ccc(-n2cnc3cc(NCc4ccc(O)c(OC)c4)ccc32)cc1 [Compound 13b]
3. CC(C)Oc1ccc(-n2cnc3cc(/C=C\c4ccc(C#N)cc4)ccc32)cc1

Ans.
1: 173 to 174 °C; 2: 157.6 to 159 °C; 3: 165 to 166 °C

----------
# target.entity: LASV GP2 (Lassa virus)
# Sequence (P08669 260-491 limits assumed): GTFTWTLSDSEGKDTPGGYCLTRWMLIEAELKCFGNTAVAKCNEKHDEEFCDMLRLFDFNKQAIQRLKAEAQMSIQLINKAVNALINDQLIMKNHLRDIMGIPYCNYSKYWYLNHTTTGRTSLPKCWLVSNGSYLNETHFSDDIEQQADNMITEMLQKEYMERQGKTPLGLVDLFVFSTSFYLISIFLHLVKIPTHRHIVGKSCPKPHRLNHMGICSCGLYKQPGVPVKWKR
# procedure.summary: biochemical
# Assay type: binding
Kindly supply the reported pKd values for the records listed here.
One number for each entry, as −log10 of the molar value.

Example cases with answers are listed next.
> print(dat)
                                   compound           target.entity  meas.value
1  COc1ccc(-n2cnc3cc(NCc4cc(OC)c(O)c(OC)c4)ccc32)cc1 [Compound 13e]  LASV GP2 (Lassa virus)        5.36
2  COc1ccc(CNc2ccc3c(c2)ncn3-c2ccc(OC)cc2)cc1 [Compound 13g]  LASV GP2 (Lassa virus)        5.33

Please look at the following compound next.
Qu. Entry CC(C)Oc1ccc(-n2cnc3cc(/C=C\c4ccc(C(C)(C)O)cc4)ccc32)cc1 [LHF−535, reference compound] has what pKd?
Ans. 6.94
